We begin with a simple list: items and their reported protein stability index.
B1: TRIM63 (parent)
chain: QRITQEQEKKLSFIEALIQQYQEQ

- Variants of: B1
- assay_protocol: protein stability index of a GFP-peptide fusion (GPS, HEK-293T) (PSI 1-6); higher = more stable;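 further: lentivirally expressed fusions sorted by FACS into six bins by GFP to DsRed ratio, PSI derived from sequencing read proportions per bin multiplied by bin number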
- run_conditions: c terminus: a fixed tail appended
I only need the number, thanks.

Worked examples follow.
{"var": "I18G", "protein stability index": 3.67}
{"var": "K10V", "protein stability index": 2.02}
{"var": "T4K", "protein stability index": 2.8}

Task item: Using known records, supply protein stability index for L11N
Reply: 2.79

Task item: Using known records, supply protein stability index for Q7V
Reply: 3.28

Task item: Using known records, supply protein stability index for E8P
Reply: 1.66

Task item: Using known records, supply protein stability index for K10A
Reply: 2.1

Task item: Using known records, supply protein stability index for E6G
Reply: 2.39

Task item: Using known records, supply protein stability index for Y21R
Reply: 3.91

Task item: Using known records, supply protein stability index for Q19W
Reply: 2.62

Task item: Using known records, supply protein stability index for E6K
Reply: 2
